Molecular target: GluN1-GluN2C NMDAR subtype (Homo sapiens, UniProt Q05586+Q14957)
Sequence (Q14957 20-1233, other chains not shown): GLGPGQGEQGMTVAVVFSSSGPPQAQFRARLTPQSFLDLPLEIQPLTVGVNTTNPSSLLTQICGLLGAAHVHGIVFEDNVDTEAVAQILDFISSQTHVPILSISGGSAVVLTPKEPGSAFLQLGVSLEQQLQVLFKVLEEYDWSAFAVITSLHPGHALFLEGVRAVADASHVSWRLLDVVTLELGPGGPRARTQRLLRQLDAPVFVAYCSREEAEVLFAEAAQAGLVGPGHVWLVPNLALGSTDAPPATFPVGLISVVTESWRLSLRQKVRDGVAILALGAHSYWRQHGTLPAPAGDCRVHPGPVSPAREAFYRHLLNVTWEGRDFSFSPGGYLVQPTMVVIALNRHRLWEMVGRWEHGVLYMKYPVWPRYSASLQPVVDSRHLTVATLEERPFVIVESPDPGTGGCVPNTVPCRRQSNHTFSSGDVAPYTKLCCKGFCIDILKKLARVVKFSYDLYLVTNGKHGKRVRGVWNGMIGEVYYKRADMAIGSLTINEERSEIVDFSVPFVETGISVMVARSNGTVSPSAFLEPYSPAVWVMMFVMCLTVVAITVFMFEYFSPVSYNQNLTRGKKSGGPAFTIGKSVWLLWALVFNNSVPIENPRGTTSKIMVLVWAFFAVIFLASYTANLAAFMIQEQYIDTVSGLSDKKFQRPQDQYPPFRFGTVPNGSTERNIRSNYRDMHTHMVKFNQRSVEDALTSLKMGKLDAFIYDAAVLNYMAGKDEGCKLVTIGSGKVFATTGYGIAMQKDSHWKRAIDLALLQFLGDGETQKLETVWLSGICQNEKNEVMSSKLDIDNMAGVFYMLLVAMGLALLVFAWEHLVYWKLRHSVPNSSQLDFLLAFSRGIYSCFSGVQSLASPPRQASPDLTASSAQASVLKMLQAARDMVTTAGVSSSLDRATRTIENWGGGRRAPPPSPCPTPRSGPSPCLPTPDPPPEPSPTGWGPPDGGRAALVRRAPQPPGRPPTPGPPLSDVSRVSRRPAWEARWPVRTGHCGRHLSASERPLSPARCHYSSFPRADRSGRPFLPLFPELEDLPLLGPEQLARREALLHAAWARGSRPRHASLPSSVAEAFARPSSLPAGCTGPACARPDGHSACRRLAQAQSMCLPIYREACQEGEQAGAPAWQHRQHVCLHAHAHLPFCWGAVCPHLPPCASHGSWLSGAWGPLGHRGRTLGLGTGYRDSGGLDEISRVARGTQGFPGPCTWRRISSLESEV
Assay: FLIPR/Ca2+ assay, NMDAR GluN1-GluN2C subtype in CHO cells
Type: cell-based
Protocol: These compounds were assessed for their effects on specific heterodimeric NMDAR subtypes stably overexpressed in Chinese Hamster Ovary (CHO) cells. The subtypes tested included GluN1-GluN2A, GluN1-GluN2B, GluN1-GluN2C, and GluN1-GluN2D. […] Intracellular Ca^2+ levels were subsequently measured to determine the extent of NMDAR activation. […]
READOUT NAME: IC50

Entry CCC1=[N+](C)[C@@H](C)CC1(c1ccccc1)c1ccccc1 [(S)-EDDP] — recorded IC50 = > 100 µM
